# experimental protocol: chemical genetic growth profiling, strain panel (AID 1159580);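 note: tested at 20 µM; growth read once vehicle control cultures reached saturation at 30 °C; 1 = growth at the plate median or of vehicle wells; lower values mean less growth of the strain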
# condition label: S. cerevisiae deletion strains, growth OD, locus YMR125W, strain sto1, hits give low values
The campaign covered roughly 5,500 compounds. About 2,000 (36%) were called active. Not shown: some 18% with an inconclusive outcome. The list shows a part of the results.
One threshold, 1, splits the recorded normalized growth values: lower ones are yes, equal or higher ones are no.

Task: Strictly below 1: is that where normalized growth of "C[C@](N)(Cc1ccc(O)c(O)c1)C(=O)O" sits?
Result: yes

Task: Note, next up: "c1cc2c(cc1[C@H]1OC[C@H]3[C@@H]1CO[C@H]3c1ccc3c(c1)OCO3)OCO2"
Result: yes

Task: Then what about the compound "O=C(O)c1ccc2c(c1)OCO2" ?
Result: no

###

Provide the reported normalized growth of each item.
# experimental protocol: chemical genetic growth profiling, strain panel (AID 1159580);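 note: tested at 20 µM; growth read once vehicle control cultures reached saturation at 30 °C; 1 = growth at the plate median or of vehicle wells; lower values mean less growth of the strain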
# condition label: S. cerevisiae deletion strains, growth OD, locus YKL190W, strain CNB1, hits give low values
Out of some 5,500 compounds screened, about 2,000 (36%) were called active. Another 18% or so got no clear call; they are omitted. Some of the results follow.
Please respond with just the number, no unit label.

Task: Would you mind telling me what normalized growth value was observed for "CCn1cc(C(=O)O)c(=O)c2cnc(N3CCCC3)nc21" ?
Result: 1

Task: // same read-out, input: "CCOP(=S)(OCC)SCSP(=S)(OCC)OCC"
Result: 1

Task: Another compound to look at: "CC1(C)CCC(C(C)(C)O)CC1"
Result: 0.992

Task: Follow-up entry: "COc1ccccc1-c1cc(=O)c2cccc(OC)c2o1"
Result: 0.938

Task: Repeat with "CCn1cc(C(=O)O)c(=O)c2ccc(C)nc21"
Result: 0.933

Task: Try "COc1nc(N)nc(SC)n1" next.
Result: 0.974

Task: Param item: "CCOC(=O)CC(=O)Nc1scc(C)c1C(=O)OCC"
Result: 0.97

Task: What do we get for "Cc1cccc2nc(-c3ccccc3)oc(=O)c12" ?
Result: 0.987

Task: Follow-up item: "COc1cc(/C=C/C(=O)O)ccc1O"
Result: 0.995

Task: Also "S=c1[nH]c2ccccc2s1" ?
Result: 0.99

Task: And what about the compound "O=C(O)c1cc(=O)c2c(OCC(O)COc3cccc4oc(C(=O)O)cc(=O)c34)cccc2o1" ?
Result: 1

Task: Moving on to the next compound: "CCOP(=S)(OCC)SCSCC"
Result: 1.01

Task: # iterate: "COC(=O)c1ccc(-c2ccccc2F)cc1"
Result: 0.857

###

# experimental protocol: chemical genetic growth profiling, strain panel (AID 1159580);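 note: tested at 20 µM; growth read once vehicle control cultures reached saturation at 30 °C; 1 = growth at the plate median or of vehicle wells; lower values mean less growth of the strain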
# condition label: S. cerevisiae deletion strains, growth OD, locus YPR167C, strain met16, hits give low values
Out of some 5,500 compounds screened, about 2,000 (36%) were called active. Not shown: some 18% with an inconclusive outcome. The list shows a part of the results.
Please respond with reported normalized growth for every item in the list.
Please reply with the number alone, leaving off any unit.

Task: // query normalized growth value for entry CC(Cc1ccc(O)c(O)c1)(NN)C(=O)O (centres undefined)
Result: 1.02

Task: Another: "COc1cc(C(=O)O)cc(OC)c1O"
Result: 0.988

Task: Follow-up entry: CC(=O)O[C@H]1CC[C@@]2(C)C(=CCC3C2CC[C@]2(C)C(=O)CCC32)C1 (some centres undefined)
Result: 0.97

Task: What would you report for "O=C(/C=C/c1ccc(O)c(O)c1)O[C@@H]1C[C@](O)(C(=O)O)C[C@@H](O)[C@H]1O" ?
Result: 1.01

Task: Then "CCn1cc(C(=O)O)c(=O)c2cnc(N3CCNCC3)nc21" ?
Result: 0.979

Task: // repeat for "C[C@H](COc1ccccc1)N[C@H](C)[C@H](O)c1ccc(O)cc1" and report
Result: 0.993

Task: Same question for "Oc1ccc(/C=C/c2cc(O)cc(O)c2)cc1" please.
Result: 0.978

Task: // next record "CO[C@@H]1[C@@H](O[C@@H]2O[C@H](C)[C@@H](O[C@H]3C[C@@](C)(O)[C@H](O)[C@H](C)O3)[C@H](N(C)C)[C@H]2O)[C@@H](CC=O)C[C@@H](C)[C@@H](O[C@H]2CC[C@H](N(C)C)[C@@H](C)O2)/C=C/C=C/C[C@H](C)OC(=O)C[C@H]1O"
Result: 1

Task: And NC(=O)c1cc[n+](CC2=C(C(=O)O)N3C(=O)C(NC(=O)C(c4ccccc4)S(=O)(=O)[O-])C3SC2)cc1 (centres undefined) ?
Result: 0.981

Task: Now consider CC1=CC(=O)CC(C)(C)C1(O)/C=C/C(C)=C\C(=O)O (centres undefined) .
Result: 0.958

Task: Request: CCC(CCC(C)C1CCC2C3CC=C4C[C@@H](OC(C)=O)CC[C@]4(C)C3CC[C@]12C)C(C)C (some centres undefined)
Result: 0.967

Task: Proceed to C#C[C@]1(O)CCC2C3CCc4cc(O)ccc4C3CC[C@@]21C (some centres undefined)
Result: 1.01

Task: Try this molecule too: CC[C@@H]1[C@@H](O)N2C3C[C@H]1C1C(O)[C@]4(C[C@@H]12)c1ccccc1N(C)[C@@H]34 (some centres undefined)
Result: 0.976

Task: Entry "C[C@](N)(Cc1ccc(O)c(O)c1)C(=O)O" please
Result: 0.997

Task: How about "COc1ccc2c(c1O)-c1c(OC)c(OC)cc3c1[C@H](C2)N(C)CC3" ?
Result: 1.04

Task: And what about the molecule "CCn1cc(C(=O)O)c(=O)c2cnc(N3CCCC3)nc21" ?
Result: 0.986

Task: Same read-out for COc1cc2c(cc1O)CC1c3c(cc(O)c(OC)c3-2)CCN1C (centres undefined) ?
Result: 1

Task: And then COc1cc2c3cc1Oc1cc(ccc1O)OC1c4c(cc(OC)c(O)c4Oc4ccc(cc4)CC3N(C)CC2)CCN1C (centres undefined) , what is it?
Result: 0.98

Task: Cool, now "O=C(O)c1cc(O)c(O)c(O)c1"
Result: 1.05

###

# experimental protocol: chemical genetic growth profiling, strain panel (AID 1159580);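 note: tested at 20 µM; growth read once vehicle control cultures reached saturation at 30 °C; 1 = growth at the plate median or of vehicle wells; lower values mean less growth of the strain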
# condition label: S. cerevisiae deletion strains, growth OD, locus YOR231W, strain MKK1, hits give low values
Hit rate of the full screen: of about 5,500 compounds, about 2,000 (36%) were called active. Another 18% or so got no clear call; they are omitted. The list shows a part of the results.
Would you mind telling me the reported normalized growth of each entry?
Answer using only a numeral; do not append any unit.

Task: Report normalized growth for "CC1=C(/C=C/C(C)=C/C=C/C(C)=C/C(=O)O)C(C)(C)CCC1" please.
Result: 0.992

Task: Now give it for Cc1cccc(CN2CCN(C(c3ccccc3)c3ccc(Cl)cc3)CC2)c1 (stereo not drawn) too.
Result: 0.887

Task: Moving on to "COc1ccc(CN(CCN(C)C)c2ncccn2)cc1"
Result: 0.99

Task: Please do the same for "c1cc2c(cc1[C@H]1OC[C@H]3[C@@H]1CO[C@H]3c1ccc3c(c1)OCO3)OCO2" as well.
Result: 0.897

Task: Same question for "COc1ccc(/C=C/c2cc(O)cc(O)c2)cc1" please.
Result: 0.991

Task: Now consider "C=CCc1cc(OC)c2c(c1OC)OCO2" .
Result: 0.999

Task: Now give it for "CCOC(=O)C1=C[C@]2(CC)CCCN3CCc4c(n1c1ccccc41)[C@@H]32" too.
Result: 1.02

Task: // query: CC(=O)OCC(=O)[C@@]12OC(C)(C)O[C@@H]1CC1C3C[C@H](F)C4=CC(=O)C=C[C@]4(C)[C@@]3(F)[C@@H](O)C[C@@]12C (stereo partly drawn)
Result: 0.999

Task: Input "O=C(O)P(=O)(O)O"
Result: 1.04

Task: Also "CC(=O)C(Sc1nc2ccccc2s1)C(C)=O" ?
Result: 0.591

Task: Same read-out for "CC1=C(/C=C/C(C)=C/C=C/C(C)=C/C=C/C=C(C)/C=C/C=C(C)/C=C/C2=C(C)CCCC2(C)C)C(C)(C)CCC1" ?
Result: 1.02

Task: Try this molecule too: "CC1=C(/C=C/C(C)=C/C=C/C(C)=C\C(=O)O)C(C)(C)CCC1"
Result: 1.05

Task: And what about the molecule C[C@@H]1CC2C3CCC4=CC(=O)C=C[C@]4(C)[C@@]3(F)[C@@H](O)C[C@]2(C)[C@@]1(O)C(=O)COP(=O)(O)O (stereo partly drawn) ?
Result: 1.01

Task: Next record, please: "O=C(O)c1cc(=O)c(O)c2c(O)c(O)ccc2c1"
Result: 0.987

Task: Check CCCC1c2ccsc2CCN1C(=S)Nc1ccc(Cl)cc1Cl (stereo not drawn) too.
Result: 0.978

Task: What do you have for OC1CCCCC1N1CCC(c2ccccc2)CC1 (stereo not drawn) ?
Result: 0.986

Task: And for "O=C(Nc1ccc(Cl)cc1Cl)c1cnccc1C(F)(F)F" ?
Result: 1.1

Task: Try this molecule too: CC1(C)CC2C1CCC1(C)OC2(C)CCC1O (stereo not drawn)
Result: 1.02

Task: What do you have for Nc1c(Br)cc(Br)cc1CNC1CCC(O)CC1 (stereo not drawn) ?
Result: 1.06

Task: Okay, and CN1CCN(C(c2ccccc2)c2ccc(Cl)cc2)CC1 (stereo not drawn) ?
Result: 0.981

Task: Entry to check: "CCCN(CCC)CCc1cccc2c1CC(=O)N2"
Result: 0.978

Task: Check CCCNC(C)C(=O)Nc1ccccc1C (stereo not drawn) too.
Result: 1.09

Task: And the next one, "CC(=O)OC/C=C(C)/C=C/C=C(C)/C=C/C1=C(C)CCCC1(C)C" ?
Result: 1.04
